The origin of these recorded values is patent US20130225488A1.

biological target: Human GLP-1 receptor (human, UniProt P43220 24-463); test: cell-based or functional assay
Sequence (P43220 24-463): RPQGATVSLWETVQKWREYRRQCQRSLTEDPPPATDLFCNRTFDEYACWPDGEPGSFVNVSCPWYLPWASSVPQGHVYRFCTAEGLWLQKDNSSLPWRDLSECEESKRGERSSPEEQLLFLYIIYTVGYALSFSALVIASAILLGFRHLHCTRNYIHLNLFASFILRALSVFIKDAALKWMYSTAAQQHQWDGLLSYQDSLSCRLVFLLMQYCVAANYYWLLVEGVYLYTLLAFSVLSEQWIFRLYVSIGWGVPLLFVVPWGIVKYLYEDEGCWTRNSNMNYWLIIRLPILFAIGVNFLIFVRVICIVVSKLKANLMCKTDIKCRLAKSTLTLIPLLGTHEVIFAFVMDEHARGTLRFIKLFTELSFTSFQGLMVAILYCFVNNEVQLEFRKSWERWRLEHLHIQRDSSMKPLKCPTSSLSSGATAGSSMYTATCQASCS
Where no end group is shown, it is not given here. [ ]: non-standard residue; d: D form.
Endpoint name: cAMP release, % activity with respect to control; test compound 10 µM (%)

[
  {
    "Binder": "HSQGTFTSD[Bip(OMe)][Bip(Pyr)] (not fully specified (C-terminus); printed as HSQGTFTSD-Bip(OMe)-Bip(Pyr)) [Seq. ID. No. 6: HSQGTFTSD-Bip(OMe)-Bip(Pyr)]",
    "Result": 99
  },
  {
    "Binder": "HXQGTXTSDXX (Aib at 2; α-Me-2F-Phe at 6; Bip(OMe) at 10; Bip(2CF3) at 11; C-terminal amide (CONH2)) [Seq. ID. No. 32: H-Aib-QGT-(α-Me-2F-Phe)-TSD-Bip(OMe)-Bip(2CF3)]",
    "Result": 99
  },
  {
    "Binder": "HSQGTXTSDXX (α-Me-2F-Phe at 6; Bip(OMe) at 10; Bip(2F) at 11) [Seq. ID. No. 23: HSQGT-(α-Me-2F-Phe)-TSD-Bip(OMe)-Bip(2F)]",
    "Result": 99
  }
]
